species on record: Homo sapiens; assay: Selectivity ratio of Ki for human recombinant CB1 receptor to Ki for human recombinant CB2 receptor

{"COMPOUND": "CC1(C)C(C(=O)c2cn(CCN3CCCCCC3)c3ccccc23)C1(C)C", "Ratio Ki": 30}
{"COMPOUND": "CC1(C)C(C(=O)c2cn(C[C@@H]3CCCO3)c3ccccc23)C1(C)C", "Ratio Ki": 67}
{"COMPOUND": "CC(C)[C@H]1CC[C@H](C(=O)c2cn(CCN3CCOCC3)c3ccccc23)CC1", "Ratio Ki": "> 53"}
{"COMPOUND": "CC1(C)C(C(=O)c2cn(Cc3cccnc3)c3ccccc23)C1(C)C", "Ratio Ki": 68}
{"COMPOUND": "CC1(C(=O)c2cn(CC3CCOCC3)c3ccccc23)CC1(Cl)Cl (configuration not stated)", "Ratio Ki": 19}
{"COMPOUND": "CC1(C)C(C(=O)c2cn(CCc3cccs3)c3ccccc23)C1(C)C", "Ratio Ki": 250}
{"COMPOUND": "O=C(c1cn(CC2CCOCC2)c2ccccc12)[C@@H]1CC12CCCCC2", "Ratio Ki": 24}
{"COMPOUND": "CC1(C)C(C(=O)c2cn(CCCCO)c3ccccc23)C1(C)C", "Ratio Ki": "> 2500"}
{"COMPOUND": "O=C(c1cn(CCN2CCOCC2)c2ccccc12)[C@@H]1CC12CCCCC2", "Ratio Ki": 87}
{"COMPOUND": "CSCCCCn1cc(C(=O)C2C(C)(C)C2(C)C)c2ccccc21", "Ratio Ki": 98}
{"COMPOUND": "O=C(c1cn(CCN2CCOCC2)c2ccccc12)C1CCCCC1", "Ratio Ki": 12}
{"COMPOUND": "CC1(C)C(C(=O)c2cn(CCc3cccnc3)c3ccccc23)C1(C)C", "Ratio Ki": "> 500"}

###

Each record here notes measured pKi.
molecular target: Cannabinoid receptor 1 (Homo sapiens); assay: Displacement of [3H]CP-55940 from human recombinant CB1 receptor expressed in CHO cells; assay type: cell-based; conditions: read-out: Ki
Sequence (P21554 whole entry): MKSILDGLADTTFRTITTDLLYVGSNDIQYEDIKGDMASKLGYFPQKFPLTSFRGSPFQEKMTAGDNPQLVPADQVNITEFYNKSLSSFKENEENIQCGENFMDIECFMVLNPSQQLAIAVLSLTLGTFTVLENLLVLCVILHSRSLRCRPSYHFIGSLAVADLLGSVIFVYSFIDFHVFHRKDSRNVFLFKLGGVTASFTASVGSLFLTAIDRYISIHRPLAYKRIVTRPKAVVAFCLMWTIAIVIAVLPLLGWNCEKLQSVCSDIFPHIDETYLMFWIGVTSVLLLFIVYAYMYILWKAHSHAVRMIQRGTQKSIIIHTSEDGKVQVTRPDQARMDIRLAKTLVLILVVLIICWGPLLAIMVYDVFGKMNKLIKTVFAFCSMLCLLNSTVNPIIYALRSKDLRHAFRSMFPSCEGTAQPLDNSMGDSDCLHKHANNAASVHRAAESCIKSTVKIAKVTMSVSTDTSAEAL
pKi: −log10 of the molar value.

{"GIVEN SMILES": "COCCn1cc(C(=O)C2C(C)(C)C2(C)C)c2ccccc21", "EXPERIMENTAL TARGET": "Cannabinoid receptor 1 (Homo sapiens)", "RELATION": "=", "pKi": 6.15}
{"GIVEN SMILES": "CC1(C)C(C(=O)c2cn(CCCC(F)(F)F)c3ccccc23)C1(C)C", "EXPERIMENTAL TARGET": "Cannabinoid receptor 1 (Homo sapiens)", "RELATION": "=", "pKi": 7.82}
{"GIVEN SMILES": "CC1(C)C(C(=O)c2cn(CCN3CCOC3=O)c3ccccc23)C1(C)C", "EXPERIMENTAL TARGET": "Cannabinoid receptor 1 (Homo sapiens)", "RELATION": "=", "pKi": 6.46}
{"GIVEN SMILES": "CC1(C)C(C(=O)c2cn(CCN3CCCC3)c3ccccc23)C1(C)C", "EXPERIMENTAL TARGET": "Cannabinoid receptor 1 (Homo sapiens)", "RELATION": "<", "pKi": 5.00}
{"GIVEN SMILES": "O=C(c1cn(CCN2CCOCC2)c2ccccc12)C1CCC1", "EXPERIMENTAL TARGET": "Cannabinoid receptor 1 (Homo sapiens)", "RELATION": "<", "pKi": 5.00}
{"GIVEN SMILES": "CC1(C)C(C(=O)c2cn(CCN3C(=O)CCC3=O)c3ccccc23)C1(C)C", "EXPERIMENTAL TARGET": "Cannabinoid receptor 1 (Homo sapiens)", "RELATION": "<", "pKi": 5.00}
{"GIVEN SMILES": "COCCCn1cc(C(=O)C2C(C)(C)C2(C)C)c2ccccc21", "EXPERIMENTAL TARGET": "Cannabinoid receptor 1 (Homo sapiens)", "RELATION": "=", "pKi": 6.18}
{"GIVEN SMILES": "CC1(C)C(C(=O)c2cn(CCC(N)=O)c3ccccc23)C1(C)C", "EXPERIMENTAL TARGET": "Cannabinoid receptor 1 (Homo sapiens)", "RELATION": "<", "pKi": 5.00}
{"GIVEN SMILES": "O=C(c1cn(CC2CCOCC2)c2ccccc12)[C@@H]1CC12CCCCC2", "EXPERIMENTAL TARGET": "Cannabinoid receptor 1 (Homo sapiens)", "RELATION": "=", "pKi": 7.21}
{"GIVEN SMILES": "O=C(c1cn(CCN2CCOCC2)c2ccccc12)C12CC3CC(CC1C3)C2", "EXPERIMENTAL TARGET": "Cannabinoid receptor 1 (Homo sapiens)", "RELATION": "<", "pKi": 5.00}
{"GIVEN SMILES": "CN1CCC(CCn2cc(C(=O)C3C(C)(C)C3(C)C)c3ccccc32)CC1", "EXPERIMENTAL TARGET": "Cannabinoid receptor 1 (Homo sapiens)", "RELATION": "<", "pKi": 5.00}
